Data credit: paper PMC11676834

Test system: MCF-7 cells
Assay: cells
Type: cell-based, human
Conditions: Homo sapiens, MCF7; MTT, 24 h; read-out: Cytotoxicity, IC50, MCF-7
recorded_metric: IC50 (µM)
Write the value in µM as a bare number.

Look at this molecule and give its reported IC50. CO[C@@H]1[C@@H](O)[C@H](O[C@@H]2[C@@H](O)[C@H](O[C@H]3[C@H](O)[C@@H](O[C@@H]4OC[C@@H](O)[C@H](O)[C@H]4O)[C@H](O[C@H]4[C@H](O[C@H]5CC[C@]6(C)C7CC[C@]8(C)[C@@H]([C@@](C)(O)C(=O)CC=C(C)C)CC[C@@]8(C)C7=CC[C@H]6C5(C)C)OC[C@@H](OS(=O)(=O)[O-])[C@@H]4O)O[C@@H]3C)O[C@H](COS(=O)(=O)[O-])[C@H]2O)O[C@H](CO)[C@H]1O.[Na+].[Na+] (stereo partly shown) [Conicospermiumoside A3-3 (3)]
28.5

---

Test: in vitro
Type: cell-based, human
Details: human, 48 h; read-out: Cytotoxicity, IC50, 48 h, MCF-10A
recorded_metric: pIC50
To interpret pIC50, take it as minus log10 of a concentration measured in moles per litre.

Consider the molecule C=C(C)CCC[C@]1(C)OC(=O)C23CC[C@H]4C(=CC[C@H]5C(C)(C)C(O[C@@H]6OC[C@@H](OS(=O)(=O)O)[C@H](O)[C@H]6O[C@@H]6O[C@H](CO)[C@@H](O[C@@H]7O[C@H](CO)[C@@H](O)[C@H](O[C@@H]8O[C@H](CO)[C@@H](O)[C@H](OC)[C@H]8O)[C@H]7O)[C@H](O)[C@H]6O[C@@H]6OC[C@@H](O)[C@H](O)[C@H]6O)CC[C@]45C)[C@]2(C)C[C@H](OC(C)=O)C31 (stereo partly shown) [Okhotoside B1 (8), okhotoside B1] and give its measured pIC50.
4.81

---

Tested on: MCF-7 cells
Experiment: cells
Format: cell-based, human
Settings: Homo sapiens, MCF7; MTT, 24 h; read-out: Cytotoxicity, IC50, MCF-7
recorded_metric: IC50 (µM)
Lab book: enter the figure in µM, no units written.

Query the reported IC50 for MCF-7 cells; item: C=C(C)CCC[C@]1(C)OC(=O)C23CC[C@H]4C(=CC[C@H]5C(C)(C)C(O[C@@H]6OC[C@@H](OS(=O)(=O)O)[C@H](O)[C@H]6O[C@@H]6O[C@H](CO)[C@@H](O[C@@H]7O[C@H](CO)[C@@H](O)[C@H](O[C@@H]8O[C@H](CO)[C@@H](O)[C@H](OC)[C@H]8O)[C@H]7O)[C@H](O)[C@H]6O[C@@H]6OC[C@@H](O)[C@H](O)[C@H]6O)CC[C@]45C)[C@]2(C)C[C@H](OC(C)=O)C31 (some centres unmarked) [Okhotoside B1 (8), okhotoside B1]
42.9

Next item in the queue.
Lab note: need IC50 with MCF-7 cells for entry CO[C@@H]1[C@@H](O)[C@H](O[C@@H]2[C@@H](O)[C@H](O[C@H]3[C@H](O)[C@@H](O[C@@H]4OC[C@@H](O)[C@H](O)[C@H]4O)[C@H](O[C@H]4[C@H](OC5CC[C@]6(C)[C@H]7CCC89C(=O)O[C@@](C)(CCCC(C)C)C8[C@@H](OC(C)=O)C[C@@]9(C)C7=CC[C@H]6C5(C)C)OC[C@@H](OS(=O)(=O)O)[C@@H]4O)O[C@@H]3C)OC[C@H]2O)O[C@H](CO)[C@H]1O (some centres unmarked) [Frondoside A (10), frondoside A] , please look it up.
19.4
